Give measured IC50 for each item. Keep answers brief.
Target: succinate dehydrogenase (Botrytis cinerea, UniProt A0A384J5E4+A0A384J8V8+A0A384JHJ5)
Construct: succinate-DCPIP reductase assay with KCN
Sequence (A0A384J5E4 1-300): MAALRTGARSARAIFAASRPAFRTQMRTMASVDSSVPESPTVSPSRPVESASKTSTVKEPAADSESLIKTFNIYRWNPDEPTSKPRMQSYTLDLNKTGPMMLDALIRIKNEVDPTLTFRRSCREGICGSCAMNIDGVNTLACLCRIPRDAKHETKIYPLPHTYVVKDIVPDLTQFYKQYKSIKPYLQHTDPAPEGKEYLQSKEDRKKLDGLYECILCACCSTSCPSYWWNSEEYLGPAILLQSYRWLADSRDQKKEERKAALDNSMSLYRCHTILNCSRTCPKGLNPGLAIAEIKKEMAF
Sequence (A0A384J8V8 1-189): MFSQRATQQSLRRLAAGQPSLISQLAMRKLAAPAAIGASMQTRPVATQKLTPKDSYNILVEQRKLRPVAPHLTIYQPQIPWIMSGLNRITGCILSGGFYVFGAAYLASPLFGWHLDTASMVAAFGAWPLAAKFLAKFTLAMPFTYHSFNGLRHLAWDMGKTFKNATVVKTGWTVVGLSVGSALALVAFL
Sequence (A0A384JHJ5 1-192): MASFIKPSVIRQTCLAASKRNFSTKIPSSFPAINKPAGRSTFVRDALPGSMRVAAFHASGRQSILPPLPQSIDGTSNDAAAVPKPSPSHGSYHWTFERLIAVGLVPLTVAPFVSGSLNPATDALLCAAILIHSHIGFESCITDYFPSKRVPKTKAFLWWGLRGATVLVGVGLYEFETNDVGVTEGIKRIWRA
Sequence (A0A384K456 1-647 partner): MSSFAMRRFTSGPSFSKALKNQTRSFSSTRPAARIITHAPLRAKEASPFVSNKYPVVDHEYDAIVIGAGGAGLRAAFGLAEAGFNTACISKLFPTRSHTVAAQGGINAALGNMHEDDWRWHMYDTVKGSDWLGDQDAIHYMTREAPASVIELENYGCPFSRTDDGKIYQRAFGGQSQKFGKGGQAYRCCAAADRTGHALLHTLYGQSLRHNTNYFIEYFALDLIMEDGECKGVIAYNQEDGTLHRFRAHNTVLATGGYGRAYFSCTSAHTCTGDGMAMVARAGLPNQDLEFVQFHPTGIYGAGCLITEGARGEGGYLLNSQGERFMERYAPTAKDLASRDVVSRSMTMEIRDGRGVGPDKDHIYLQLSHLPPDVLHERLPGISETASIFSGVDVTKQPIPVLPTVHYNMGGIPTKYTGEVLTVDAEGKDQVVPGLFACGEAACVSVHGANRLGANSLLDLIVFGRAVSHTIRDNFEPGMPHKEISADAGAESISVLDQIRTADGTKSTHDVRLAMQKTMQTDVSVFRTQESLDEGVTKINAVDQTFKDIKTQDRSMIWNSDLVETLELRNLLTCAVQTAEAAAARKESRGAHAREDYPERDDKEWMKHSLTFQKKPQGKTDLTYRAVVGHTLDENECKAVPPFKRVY
Assay: Enzyme inhibition: succinate dehydrogenase activity in Botrytis cinerea mitochondria (DCPIP reduction)
Format: biochemical
Details: concentration required to inhibit the rate of DCPIP reduction by 50%; Botrytis cinerea isolate Nick mitochondria; read-out: I50 (μM conc.)
Experimental: Mitochondria were isolated by a method adapted from G.A. White [Biochem. Biophys. Res. Commun. 44: 1212, 1971]. […] The succinate dehydrogenase activity was measured at 600 nm in 50 mM potassium phosphate, pH 7.2, 1 mM KCN, 45 μM 2,6-dichlorophenolindophenol (DCPIP) and 17 mM disodium succinate (final volume, 1 mL) with a Perkin-Elmer Lambda 7 ultraviolet-visible spectrophotometer. […]
Answer format: numeric, µM implied, no suffix.

succinate dehydrogenase (Botrytis cinerea, UniProt A0A384J5E4+A0A384J8V8+A0A384JHJ5) data for Cc1nn(C)c(C)c1C(=O)Nc1ccccc1C1CCCCCC1 ; its IC50: 0.048

succinate dehydrogenase (Botrytis cinerea, UniProt A0A384J5E4+A0A384J8V8+A0A384JHJ5) data for Cc1nn(C)c(F)c1C(=O)Nc1ccccc1C1CCCCCC1 ; its IC50: 0.013

succinate dehydrogenase (Botrytis cinerea, UniProt A0A384J5E4+A0A384J8V8+A0A384JHJ5) data for Cn1cc(C(=O)Nc2ccccc2C2=CC(C)(C)CC(C)(C)C2)c(C(F)(F)F)n1 ; its IC50: 0.023

----------
Target: succinate dehydrogenase (Botrytis cinerea, UniProt A0A384J5E4+A0A384J8V8+A0A384JHJ5)
Construct: succinate-DCPIP reductase assay with KCN
Experiment: Enzyme inhibition: succinate dehydrogenase activity in Botrytis cinerea mitochondria (DCPIP reduction)
Format: biochemical
Details: concentration required to inhibit the rate of DCPIP reduction by 50%; Botrytis cinerea isolate Nick mitochondria; read-out: I50 (μM conc.)
Procedure: Mitochondria were isolated by a method adapted from G.A. White [Biochem. Biophys. Res. Commun. 44: 1212, 1971]. […] The succinate dehydrogenase activity was measured at 600 nm in 50 mM potassium phosphate, pH 7.2, 1 mM KCN, 45 μM 2,6-dichlorophenolindophenol (DCPIP) and 17 mM disodium succinate (final volume, 1 mL) with a Perkin-Elmer Lambda 7 ultraviolet-visible spectrophotometer. […]
OBSERVABLE: IC50 (µM)
Answer format: numeric, µM implied, no suffix.

According to the records, this molecule Cn1cc(C(=O)Nc2ccccc2C2CCC(C(C)(C)C)CC2)c(C(F)(F)F)n1 (stereo not drawn) [Example 135] displays IC50 of 0.01

According to the records, this molecule Cn1cc(C(=O)Nc2ccccc2OCCC2CCCC2)c(C(F)F)n1 [Example 54] displays IC50 of 0.011

According to the records, this molecule Cn1cc(C(=O)Nc2ccccc2C2CCCCC2)c(OC(F)F)n1 [Example 59] displays IC50 of 1

According to the records, this molecule Cn1cc(C(=O)Nc2ccccc2SC2CCCCC2)c(C(F)F)n1 [Example 44] displays IC50 of 0.052

According to the records, this molecule Cn1cc(C(=O)Nc2ccccc2O[C@H]2C[C@H]3CC[C@@H]2C3)c(C(F)F)n1 (relative stereo) [Example 82] displays IC50 of 0.065

According to the records, this molecule C[C@@H]1CCC[C@H](C)[C@H]1Oc1ccccc1NC(=O)c1cn(C)nc1C(F)(F)F [Example 76] displays IC50 of 0.032

According to the records, this molecule Cc1nn(C)cc1C(=O)Nc1ccccc1[C@@H]1C[C@H]2CC[C@@H]1C2 (relative stereo) [Example 71] displays IC50 of 0.046

According to the records, this molecule Cc1cccc(NC(=O)c2cn(C)nc2C(F)F)c1C1CCCCC1 [Example 20] displays IC50 of 0.014

According to the records, this molecule Cn1cc(C(=O)Nc2ccccc2C2CCCCC2)c([N+](=O)[O-])n1 [Example 62] displays IC50 of 0.29

According to the records, this molecule Cn1cc(C(=O)Nc2ccccc2C2CCCCCC2)c(OC(F)F)n1 [Example 60] displays IC50 of 0.35

According to the records, this molecule Cc1nn(C)c(C)c1C(=O)Nc1ccccc1C1CCCCC1 [Example 30] displays IC50 of 0.34

According to the records, this molecule Cn1cc(C(=O)Nc2ccccc2C2=CCCCCC2)c(C(F)F)n1 [Example 111] displays IC50 of 0.0038

These measurements were taken from patent US5223526A.
